# EC50 per entry for primary human T-cells
Reported Metric: EC50 (µM)

>>> print(df.to_string())
                                   molecule  reported_metric  units_text  readout_qualifier  readout_value
0  CC(C)(C)c1nnc(-c2ccc3c(c2)N(Cc2ccc(OC4CCCC4)cc2)C(=O)[C@@H](N)CS3(=O)=O)o1 [Example 430]             EC50          µM                  =         0.0242
1  CC(O)(CNc1nnc(-c2cc3c(cc2F)S(=O)(=O)C[C@H](N)C(=O)N3Cc2ccc(Cl)cc2)o1)C(F)(F)F (stereo partly shown) [Example 484]             EC50          µM                  =           1.89
2  CC(=O)N1CCN(c2nnc(-c3cc4c(cc3F)S(=O)(=O)C[C@H](N)C(=O)N4Cc3ccc(Cl)cc3)o2)CC1 [Example 471]             EC50          µM                  >             10
3  CC(C)(CN)c1nnc(-c2cc3c(cc2F)S(=O)(=O)C[C@H](N)C(=O)N3Cc2ccc(Cl)cc2)o1 [Example 111]             EC50          µM                  =           3.13
4  CC(=O)NCCCCCCCCCCCOc1ccc(CN2C(=O)[C@@H](N)CS(=O)(=O)c3cc(F)c(-c4nnc(C(C)(C)C)o4)cc32)cc1 [Example 235]             EC50          µM                  =           0.17
5  CC(C)(C)n1nnc(-c2ccc3c(c2)N(Cc2ccc(Cl)cc2)C(=O)[C@@H](N)CS3(=O)=O)n1 [Example 36]             EC50          µM                  =          0.473
6  Cc1ccc(-c2nnc(-c3ccc4c(c3)N(Cc3ccc(Cl)cc3)C(=O)[C@@H](N)CS4(=O)=O)o2)cc1 [Example 377]             EC50          µM                  =           1.72

* * *

Tested on: primary human T-cells
Assay: Proliferation assay after 5 days (CellTiter-Glo, CD3 stimulation; PBS counter screen)
Format: cell-based
Settings: Homo sapiens, T-cell, 120 h, primary human T-cells, CD3 stimulation, CellTiter-Glo after 5 days; EC50 of fitted sigmoidal curve; read-out: Tcell Proliferation CD3 EC50
# Lookup of reported EC50 keyed by entry
Reported Metric: EC50 (nM)

                                   compound        measured_target  reported_metric  readout_value
0  CN(C)CCC(C)(C)c1nnc(-c2cc3c(cc2F)S(=O)(=O)C[C@H](N)C(=O)N3Cc2ccc(Cl)cc2)o1  primary human T-cells             EC50           5350
1  CC(C)(C)c1nnc(-c2ccc3c(c2)N(Cc2ccc(C(C)(C)C#N)cc2)C(=O)[C@@H](N)CS3(=O)=O)o1  primary human T-cells             EC50            698
2  CC(C)(CNC1CCOC1)c1nnc(-c2cc3c(cc2F)S(=O)(=O)C[C@H](N)C(=O)N3Cc2ccc(Cl)cc2)o1 (stereo partly shown)  primary human T-cells             EC50           1010
3  CN(C)C(=O)C(C)(C)c1nnc(-c2cc3c(cc2F)S(=O)(=O)C[C@H](N)C(=O)N3Cc2ccc(Cl)cc2)o1  primary human T-cells             EC50            587
4  CN1CC(c2nc(-c3cc4c(cc3F)S(=O)(=O)C[C@H](N)C(=O)N4Cc3ccc(Cl)cc3)no2)CC(F)(F)C1 (stereo partly shown)  primary human T-cells             EC50            229
5  N[C@H]1CS(=O)(=O)c2cc(F)c(-c3ccn[nH]3)cc2N(Cc2ccc(Cl)cc2)C1=O  primary human T-cells             EC50          15300
6  CC(C)(CO)c1noc(-c2cc3c(cc2F)S(=O)(=O)C[C@H](N)C(=O)N3Cc2ccc(Cl)cc2)n1 (racemic)  primary human T-cells             EC50           1820

* * *

Tested on: primary human T-cells
Assay: Proliferation assay after 5 days (CellTiter-Glo, CD3 stimulation; PBS counter screen)
Assay type: cell-based
Settings: Homo sapiens, T-cell, 120 h, CD3 stimulation, 5 days; normalized to reference compound A1 as stimulator control = 100%, DMSO neutral control; read-out: Emax proliferation (% activation)
Listing of entries alongside the reported Emax.
Reported Metric: Emax (%)

In [3]: df
Out[3]:
                                   compound        measured_target  units_text  readout_value
0  CC1(C)CN(c2nnc(-c3ccc4c(c3)N(Cc3ccc(Cl)cc3)C(=O)[C@@H](N)CS4(=O)=O)o2)CCO1 [Example 395]  primary human T-cells           %             88
1  Cc1ccc(S(C)(=O)=O)cc1-c1nc(-c2cc3c(cc2F)S(=O)(=O)C[C@H](N)C(=O)N3Cc2ccc(Cl)cc2)no1 [Example 311]  primary human T-cells           %             67
2  N[C@H]1CS(=O)(=O)c2cc(F)c(-c3nnc(NC4CCCC(F)(F)C4)o3)cc2N(Cc2ccc(Cl)cc2)C1=O (stereo partly drawn) [Example 463]  primary human T-cells           %            104
3  Cc1cc(C)c(-c2nc(-c3cc4c(cc3F)S(=O)(=O)C[C@H](N)C(=O)N4Cc3ccc(Cl)cc3)no2)cn1 [Example 313]  primary human T-cells           %            191
4  COC(=O)N1CC2CC(c3nnc(-c4ccc5c(c4)N(Cc4ccc(OC(F)(F)C(F)F)cc4)C(=O)[C@@H](N)CS5(=O)=O)o3)(C2)C1 [Example 443]  primary human T-cells           %             97
5  CC1(C)CN(c2nc(-c3cc4c(cc3F)S(=O)(=O)C[C@H](N)C(=O)N4Cc3ccc(Cl)cc3)no2)CCO1 [Example 205]  primary human T-cells           %            119

* * *

Tested on: primary human T-cells
EC50 listing for selected compounds.
Reported Metric: EC50 (nM)

>>> print(df.to_string())
                               smiles_entry        measured_target  readout_value
0  CC(C)(C)c1nnc(-c2ccc3c(c2)N(Cc2ccc(N4CCN(C5CC5)CC4)cc2)C(=O)[C@@H](N)CS3(=O)=O)o1  primary human T-cells           9560
1  Cc1cc(C)c(-c2nnc(-c3cc4c(cc3F)S(=O)(=O)C[C@H](N)C(=O)N4Cc3ccc(Cl)cc3)o2)cn1  primary human T-cells            284
2  COc1ccc(CN2C(=O)[C@@H](N)CS(=O)(=O)c3cc(F)c(-c4nnc(C(C)(C)C)o4)cc32)cc1  primary human T-cells            105
3  CC(C)(C)n1cc(-c2cc3c(cc2F)S(=O)(=O)C[C@H](N)C(=O)N3Cc2ccc(Cl)cc2)cn1  primary human T-cells            177

* * *

System: primary human T-cells
# Lookup of reported EC50 keyed by entry

Compound	Readout Qualifier	EC50 (nM)
CC(C)(C)c1nc(-c2cc3c(cc2F)[S+]([O-])C[C@H](N)C(=O)N3Cc2ccc(Cl)cc2)no1 (single isomer, unassigned; epimer b) [Example 341]	>	10000
N[C@H]1CS(=O)(=O)c2cc(F)c(-c3noc(C(F)(F)C(F)(F)F)n3)cc2N(Cc2ccc(Cl)cc2)C1=O	=	703
Cc1c(F)c(-c2nnc(C(C)(C)C)o2)cc2c1S(=O)(=O)C[C@H](N)C(=O)N2Cc1ccc(Cl)cc1	=	7860
N[C@H]1CS(=O)(=O)c2cc(F)c(-c3nnc(C4(C(F)F)CNC4)o3)cc2N(Cc2ccc(Cl)cc2)C1=O	=	3230
CC(C)(C)c1nnc(-c2ccc3c(c2)N(Cc2ccc(N4CCOCC4)cc2)C(=O)[C@@H](N)CS3(=O)=O)o1	=	7570
CN(CC(F)(F)F)c1nnc(-c2ccc3c(c2)N(Cc2ccc(Cl)cc2)C(=O)[C@@H](N)CS3(=O)=O)o1	=	568
COC(=O)NC(C(F)(F)F)C(C)(C)c1nnc(-c2cc3c(cc2F)S(=O)(=O)C[C@H](N)C(=O)N3Cc2ccc(Cl)cc2)o1 (stereo partly shown)	=	487
CN(C)C(=O)C(C)(C)c1nnc(-c2cc3c(cc2F)S(=O)(=O)C[C@H](N)C(=O)N3Cc2ccc(Cl)cc2)o1	=	1440
Cc1cc2c(cc1-c1nnc(C3CN(C)CC(F)(F)C3)o1)N(Cc1ccc(Cl)cc1)C(=O)[C@@H](N)CS2(=O)=O (stereo partly shown)	>	10000
CC(C)(C)c1nnc(-c2cc3c(cc2F)S(=O)(=O)C[C@H](N)C(=O)N3Cc2ccccc2Cl)o1	>	20000
CC(C)(C)c1nnc(-c2cc3c(cc2F)S(=O)(=O)C[C@H](N)C(=O)N3Cc2ccc(OCC(F)F)cc2)o1	=	535
N[C@H]1CS(=O)(=O)c2cc(F)c(-c3nnc(-c4ccc(F)cc4)o3)cc2N(Cc2ccc(Cl)cc2)C1=O	=	105
CN1CCCC(F)(c2nc(-c3cc4c(cc3F)S(=O)(=O)C[C@H](N)C(=O)N4Cc3ccc(Oc4ccccc4)cc3)no2)C1 (stereo partly shown)	=	619

Entry source: patent US20240368150A1
